Reference for the values: patent US12509459B2

Give pIC50 for every item shown.
- subject.of.test: NLRP3 (Homo sapiens, UniProt Q96P20)
- Sequence (Q96P20 whole entry): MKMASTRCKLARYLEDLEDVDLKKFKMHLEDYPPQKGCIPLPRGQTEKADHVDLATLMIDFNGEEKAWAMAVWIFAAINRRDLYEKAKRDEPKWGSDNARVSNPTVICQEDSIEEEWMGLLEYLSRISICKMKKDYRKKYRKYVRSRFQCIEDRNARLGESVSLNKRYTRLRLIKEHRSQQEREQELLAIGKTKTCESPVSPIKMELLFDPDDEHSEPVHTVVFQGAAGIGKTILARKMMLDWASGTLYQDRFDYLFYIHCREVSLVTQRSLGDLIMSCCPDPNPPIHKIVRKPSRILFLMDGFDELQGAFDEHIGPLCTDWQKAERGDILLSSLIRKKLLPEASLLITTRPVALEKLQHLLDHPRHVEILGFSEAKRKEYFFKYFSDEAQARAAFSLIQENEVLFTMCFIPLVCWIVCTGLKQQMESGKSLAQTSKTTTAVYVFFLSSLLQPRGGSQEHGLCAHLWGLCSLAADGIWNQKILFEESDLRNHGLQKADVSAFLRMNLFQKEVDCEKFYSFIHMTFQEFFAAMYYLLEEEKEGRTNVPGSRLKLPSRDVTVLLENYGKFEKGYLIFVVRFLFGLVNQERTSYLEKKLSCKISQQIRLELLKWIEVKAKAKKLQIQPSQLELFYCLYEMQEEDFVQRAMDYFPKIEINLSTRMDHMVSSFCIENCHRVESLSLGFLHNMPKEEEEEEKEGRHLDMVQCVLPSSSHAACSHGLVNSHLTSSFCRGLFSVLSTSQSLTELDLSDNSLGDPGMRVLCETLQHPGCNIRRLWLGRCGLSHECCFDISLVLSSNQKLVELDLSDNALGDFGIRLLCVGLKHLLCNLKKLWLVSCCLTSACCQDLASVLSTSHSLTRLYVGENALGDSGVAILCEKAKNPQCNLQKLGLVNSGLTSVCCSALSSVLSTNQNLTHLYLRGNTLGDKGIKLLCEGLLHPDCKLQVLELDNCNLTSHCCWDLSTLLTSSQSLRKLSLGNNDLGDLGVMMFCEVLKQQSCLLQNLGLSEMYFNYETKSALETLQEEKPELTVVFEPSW
- procedure.details: THP-1 cell-based NLRP3 activation assay
- particulars: PMA-differentiated THP-1 cells, LPS 100 ng/mL then 10 μM nigericin
pIC50: −log10 of the molar value.

The following molecules have reported results that may help.
CN(C)CC[C@H](c1cccc2cn[nH]c12)N(C)C(=O)c1ccc(-c2cccc(F)c2)c(OC2CC2)c1: > 7.00
CCOc1cc(C(=O)N(C)[C@@H](CN(C)C)c2cccc3cn[nH]c23)ccc1-c1cccc(F)c1: > 7.00
CCOc1cc(C(=O)N(C)[C@H](c2cncc3cn[nH]c23)C2CN(C)C2)ccc1-c1ccccc1: > 7.00
CCOc1cc(C(=O)N(C)[C@H](CCN(C)C)c2cncc3cn[nH]c23)ccc1-c1cc(Cl)cc(Cl)c1: > 7.00

Record pIC50 for all entries; do not skip any.
1. CCOc1cc(C(=O)N(C)[C@H](CCN(CC)CCF)c2cncc3cn[nH]c23)ccc1-c1cccc(F)c1
2. CCOc1cc(C(=O)N(C)[C@H](CCOC)c2cncc3cn[nH]c23)ccc1-c1cccc(F)c1
3. CCOc1cc(C(=O)N(C)[C@H](CCN(C)C)c2cncc3cn[nH]c23)ccc1-c1ccccc1
4. CCOc1cc(C(=O)N(C)[C@H](c2cncc3cn[nH]c23)C2CN(CC)C2)ccc1-c1cccc(Cl)c1
5. CCOc1cc(C(=O)N(C)[C@H](CO)c2cnc(C)c3cn[nH]c23)ccc1-c1cc(F)cc(F)c1
6. CCOc1cc(C(=O)N(Cc2cnc(C)c3cn[nH]c23)[C@@H]2CC[C@H]2O)ccc1-c1cccc(F)c1

1: > 7.00; 2: > 7.00; 3: > 7.00; 4: > 7.00; 5: > 7.00; 6: 6.30 to 7.00

Record pIC50 for all entries; do not skip any.
1. CCOc1cc(C(=O)N(Cc2ccc(C)c3cn[nH]c23)[C@H]2C[C@@H](NC)C2)ccc1-c1cccc(F)c1
2. CCOc1cc(C(=O)N(C)[C@@H](c2cncc3cn[nH]c23)[C@@H]2CCNC2)ccc1-c1cccc(F)c1 (single isomer, unassigned)
3. CCOc1cc(C(=O)N(Cc2cccc3cn[nH]c23)[C@H]2C[C@@H](NC)C2)ccc1-c1cccc(F)c1
4. CCOc1cc(C(=O)N(C)[C@H](CCN(C)C)c2cncc3cn[nH]c23)ccc1C(C)CC (some centres unmarked)
5. CCOc1cc(C(=O)N(C)[C@H](CCN(C)CCO)c2cncc3cn[nH]c23)ccc1-c1cccc(F)c1
6. CCOc1cc(C(=O)N(Cc2cnc(C)c3cn[nH]c23)C(C)CO)ccc1-c1cccc(F)c1 (centres unmarked)
7. CCOc1cc(C(=O)N(C)[C@H](CCN(C)C)c2cnc(C)c3cn[nH]c23)ccc1-c1cccc(Cl)c1

["> 7.00", "> 7.00", "> 7.00", "> 7.00", "> 7.00", "< 4.82", "> 7.00"]

Record pIC50 for all entries; do not skip any.
1. CCOc1cc(C(=O)N(C)[C@H](CN(CC)CC)c2cncc3cn[nH]c23)ccc1-c1cccc(F)c1
2. CCOc1cc(C(=O)N(C)[C@H](CCN(C)C)c2cccc3cn[nH]c23)ccc1-c1ccccc1

["> 7.00", "> 7.00"]
